Source listed as BigSolDB 2.1.

settings: in ethyl acetate, 293.15 K
METRIC: solubility (mole fraction)

SMILES RECORD: O=C1OC(=O)[C@H]2[C@@H]1[C@@H]1C=C[C@H]2O1
REPORTED: 0.0223

====

details: in methyl acetate, 303.15 K

SMILES RECORD: O=C1OC(=O)[C@H]2[C@@H]1[C@@H]1C=C[C@H]2O1
solubility (mole fraction): 0.0483

====

details: in ethanol, 303.15 K

SMILES RECORD: O=C1OC(=O)[C@H]2[C@@H]1[C@@H]1C=C[C@H]2O1
solubility (mole fraction): 0.00145

====

details: in acetone, 323.15 K
METRIC: solubility (mole fraction)

SMILES RECORD: O=C1OC(=O)[C@H]2[C@@H]1[C@@H]1C=C[C@H]2O1
REPORTED: 0.126

====

settings: in ethanol, 283.15 K

SMILES RECORD: O=C1OC(=O)[C@H]2[C@@H]1[C@@H]1C=C[C@H]2O1
solubility (mole fraction): 0.00076

====

conditions: in ethyl acetate, 308.15 K
METRIC: solubility (mole fraction)

SMILES RECORD: O=C1OC(=O)[C@H]2[C@@H]1[C@@H]1C=C[C@H]2O1
REPORTED: 0.0364

====

settings: in ethanol, 298.15 K
METRIC: solubility (mole fraction)

SMILES RECORD: O=C1OC(=O)[C@H]2[C@@H]1[C@@H]1C=C[C@H]2O1
METRIC: solubility (mole fraction)
REPORTED: 0.00124

====

details: in methyl acetate, 278.15 K
METRIC: solubility (mole fraction)

SMILES RECORD: O=C1OC(=O)[C@H]2[C@@H]1[C@@H]1C=C[C@H]2O1
REPORTED: 0.0225

====

settings: in 1,4-dioxane, 293.15 K

SMILES RECORD: O=C1OC(=O)[C@H]2[C@@H]1[C@@H]1C=C[C@H]2O1
solubility (mole fraction): 0.0275

====

details: in ethyl acetate, 323.15 K
METRIC: solubility (mole fraction)

SMILES RECORD: O=C1OC(=O)[C@H]2[C@@H]1[C@@H]1C=C[C@H]2O1
METRIC: solubility (mole fraction)
REPORTED: 0.0559

====

conditions: in ethanol, 288.15 K

SMILES RECORD: O=C1OC(=O)[C@H]2[C@@H]1[C@@H]1C=C[C@H]2O1
solubility (mole fraction): 0.00091

====

details: in methyl acetate, 293.15 K
METRIC: solubility (mole fraction)

SMILES RECORD: O=C1OC(=O)[C@H]2[C@@H]1[C@@H]1C=C[C@H]2O1
REPORTED: 0.0357

====

conditions: in 1,4-dioxane, 318.15 K

SMILES RECORD: O=C1OC(=O)[C@H]2[C@@H]1[C@@H]1C=C[C@H]2O1
solubility (mole fraction): 0.0869

====

details: in 1,4-dioxane, 288.15 K

SMILES RECORD: O=C1OC(=O)[C@H]2[C@@H]1[C@@H]1C=C[C@H]2O1
solubility (mole fraction): 0.0221

====

details: in ethyl acetate, 318.15 K
METRIC: solubility (mole fraction)

SMILES RECORD: O=C1OC(=O)[C@H]2[C@@H]1[C@@H]1C=C[C@H]2O1
METRIC: solubility (mole fraction)
REPORTED: 0.0475
